molecular target: human D4 receptor (Homo sapiens (Human)); assay: Test 2: binding activity to human D4 receptor ([3H] dopamine, CHO cell membrane)
Sequence (P21917 whole entry): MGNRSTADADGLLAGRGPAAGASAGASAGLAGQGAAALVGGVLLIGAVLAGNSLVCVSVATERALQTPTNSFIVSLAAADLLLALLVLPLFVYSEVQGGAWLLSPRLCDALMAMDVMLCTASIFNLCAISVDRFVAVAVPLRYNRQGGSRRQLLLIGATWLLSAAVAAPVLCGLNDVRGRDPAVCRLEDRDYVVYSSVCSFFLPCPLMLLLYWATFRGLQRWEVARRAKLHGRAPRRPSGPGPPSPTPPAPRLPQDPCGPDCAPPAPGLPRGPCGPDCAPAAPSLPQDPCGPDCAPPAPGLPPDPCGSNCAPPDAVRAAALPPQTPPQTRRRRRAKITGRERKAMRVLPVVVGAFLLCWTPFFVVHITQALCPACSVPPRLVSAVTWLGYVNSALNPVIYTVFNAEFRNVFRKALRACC
Exercise: state measured pKi for each of the molecules provided.
Give bare numbers, as −log10 of the molar value.

Worked cases, answers included:
O=C(NCCN1CC=C(c2cccc(C(F)(F)F)n2)CC1)C1CCOCC1 [Example 19] | 8.10
Cc1cccc(C2=CCN(CCNC(=O)[C@H]3C[C@@H]4CC[C@H]3O4)CC2)n1 [Example 13] | 7.62
Cc1cccc(C2=CCN(CCNC(=O)C3CCOCC3)CC2)n1 [Example 29] | 7.66

Now for another entry.
Briefly, pKi measured for COCC(C)(C)C(=O)NCCN1CC=C(c2cccc(C)n2)CC1 [Example 17] : 7.04

###

Molecular target: human D2 receptor (Homo sapiens (Human), UniProt P14416)
Sequence (P14416 whole entry): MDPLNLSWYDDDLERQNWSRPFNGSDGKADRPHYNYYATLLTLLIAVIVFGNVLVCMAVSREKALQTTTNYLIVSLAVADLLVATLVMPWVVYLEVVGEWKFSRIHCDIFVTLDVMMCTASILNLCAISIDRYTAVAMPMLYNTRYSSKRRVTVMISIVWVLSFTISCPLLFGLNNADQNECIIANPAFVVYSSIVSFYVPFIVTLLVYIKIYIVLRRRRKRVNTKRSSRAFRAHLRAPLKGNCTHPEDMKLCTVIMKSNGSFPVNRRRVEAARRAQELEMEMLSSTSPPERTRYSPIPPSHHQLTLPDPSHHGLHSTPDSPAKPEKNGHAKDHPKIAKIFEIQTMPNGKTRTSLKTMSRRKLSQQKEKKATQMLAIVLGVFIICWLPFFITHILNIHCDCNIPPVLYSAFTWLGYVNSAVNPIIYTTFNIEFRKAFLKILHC
Test: Test 2: binding activity to human D2 receptor ([3H] spiperone, CHO cell membrane)
Details: [3H] spiperone; read-out: D2 binding affinity (Ki value)
Source text: Test 2: Evaluation of Binding Activity to Human 5-HT1A Receptor, Human D4 Receptor, and Human D2 Receptor CHO cell membrane fraction in which human 5-HT1A receptor, human D4 receptor, and human D2 receptor were expressed was purchased from PerkinElmer Co., Ltd. In the evaluation test of binding, the test compound dissolved in DMSO, each receptor membrane preparation diluted with buffer solution, and [3H] […]
pKi: −log10 of the molar value.
Exercise: state measured pKi for each of the compounds provided.

CC(C)(C)C(=O)NCCN1CCC(c2cccc(C(F)(F)F)n2)CC1 | 5.61
COCC(C)(C)C(=O)NCCN1CC=C(c2cccc(C)n2)CC1 | < 5.00
Cc1cccc(C2=CCN(CCNC(=O)C3CCC(F)(F)CC3)CC2)n1 | 5.61
COc1cccc(C2CCN(CCNC(=O)C3CCOCC3)CC2)n1 | < 5.00
Cc1cccc(C2=CCN(CCNC(=O)[C@H]3C[C@@H]4CC[C@H]3O4)CC2)n1 | < 5.00
COCC(C)(C)C(=O)NCCN1CCC(c2cccc(C(F)(F)F)n2)CC1 | < 5.00

Now for another entry.
Briefly, pKi measured for "O=C(NCCN1CCC(c2cccc(F)n2)CC1)C1CCOCC1" : < 5.00

###

biological target: human D4 receptor (Homo sapiens (Human)); assay: Test 1: agonistic activity for human D4 receptor (aequorin/Gα16 luminescence in CHO-K1 cell); type: cell-based; conditions: CHO-K1; 100% = 10 μmol/L endogenous ligand
Note to self: use Met only for Emax readings below 60%; a reading exactly at 60% still gets Not met.

CO[C@H]1CC[C@H](C(=O)NCCN2CCC(c3cccc(C(F)(F)F)n3)CC2)CC1 [Example 27] | Met
N#Cc1cccc(C2CCN(CCNC(=O)C3CCOCC3)CC2)n1 [Example 35] | Met
O=C(NCCN1CCC(c2cccc(OC(F)(F)F)n2)CC1)C1CCOCC1 [Example 28] | Met

Now examine the next entry.
Input O=C(NCCN1CCC(c2cccc(F)n2)CC1)C1CCOCC1 [Example 32] ; condition: Emax strictly below 60%. Does it hold?
Not met
